System: transactivating tegument protein VP16 (Human herpesvirus 1), Gal4-VP16 luciferase reporter
RUN DESCRIPTION: VP16 transactivation inhibitors, counter-screen for SRC3 inhibitor project, cell-based, luminescence, high throughput (AID 588794)
CONDITION INFO: mammalian cells, VP16-driven luciferase reporter luminescence; at 3.6 µM; stronger effect = higher value
Reported inhibition is given for each of the following molecules.
Only the number, expressed in %, is required.

Please look at COc1cc2oc(=O)cc(-c3ccc(-c4ccc(CO)cc4)cc3)c2c(OC)c1OC and tell me its recorded inhibition on transactivating tegument protein VP16 (Human herpesvirus 1), Gal4-VP16 luciferase reporter.
28.3

Report the value of inhibition obtained on transactivating tegument protein VP16 (Human herpesvirus 1), Gal4-VP16 luciferase reporter for Cc1cc(N2CCOCC2)c2c(N)c(Br)cc(C)c2n1 .
59

Write down the reported inhibition (system: transactivating tegument protein VP16 (Human herpesvirus 1), Gal4-VP16 luciferase reporter) of COc1cccc(Nc2ncnc3ccc(Br)cc23)c1
31

// fetch inhibition; item: CC(C)c1ccc(-c2nnn(CCC(=O)O)n2)cc1 ; system: transactivating tegument protein VP16 (Human herpesvirus 1), Gal4-VP16 luciferase reporter
46.8

Look up and report inhibition, with transactivating tegument protein VP16 (Human herpesvirus 1), Gal4-VP16 luciferase reporter as system, for CN1/C(=C\C(=O)C[n+]2ccc3ccccc3c2)C(C)(C)c2ccccc21
50.2

GET inhibition where system = transactivating tegument protein VP16 (Human herpesvirus 1), Gal4-VP16 luciferase reporter and item = O=[N+]([O-])c1ccc(N=Nc2c(Cl)cc(O)cc2Cl)cc1
66

Please report inhibition with transactivating tegument protein VP16 (Human herpesvirus 1), Gal4-VP16 luciferase reporter for item CC(=C/c1ccccc1)/C=N/n1c(-c2ccncc2)n[nH]c1=S .
45.2

Under transactivating tegument protein VP16 (Human herpesvirus 1), Gal4-VP16 luciferase reporter, report inhibition for Cc1ccccc1CN1CC2=C(CCN(Cc3ccccc3)C2=O)N2CCN=C12
70.7

Answer with inhibition of CC[C@@]1(O)C(=O)OCc2c1cc1n(c2=O)Cc2cc3c(CN(C)C)c(O)ccc3nc2-1 measured for transactivating tegument protein VP16 (Human herpesvirus 1), Gal4-VP16 luciferase reporter.
53.2

Print transactivating tegument protein VP16 (Human herpesvirus 1), Gal4-VP16 luciferase reporter inhibition for O=C1C(=O)c2cccnc2-c2ncccc21 .
97.1

* * *

inhibition by entry:
RUN DESCRIPTION: STAT1 reporter inhibitors, IFN-gamma induced, confirmation, counter-screen for STAT3 inhibitor project, cell-based, NIH 3T3, luciferase luminescence (AID 1317);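 further: 0% = DMSO with IFN-gamma and 100% = nifuroxazide control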
CONDITION INFO: NIH 3T3 STAT1-luciferase reporter, at 5.7 µM, stronger effect = higher value
The other results are listed elsewhere or left out.
Expressed in %, but write only the number.

Use these answered entries as a reference point.
# SMI, MEASUREMENT
rows = [
    ("Cc1ccc(Nc2ccccc2N)cc1", 6.8),
    ("CC(C)C[C@@H](N)c1nnc(SCC(=O)c2ccc(Cl)cc2)o1", 9.47),
    ("Cn1c(SCC(=O)N2CCCc3ccccc32)nc2ccccc2c1=O", 22.5),
    ("COc1cc(N=Cc2c(O)[nH]c3ccccc23)cc(OC)c1OC", -12),
    ("c1ccc(-c2noc(-c3cccs3)n2)nc1", -54.9),
]

Give recorded inhibition. O=C(Nc1ccc(CSc2ccccc2)cc1)c1ccc(CN2CCOCC2)cc1
10.4

Look up and report measured inhibition for this entry: OCCn1c(-c2ccccc2)csc1=Nc1ccccc1
-20.1

Respond only with inhibition recorded for Cc1ccc(-c2cn3cc([N+](=O)[O-])ccc3n2)cc1
-77

* * *

Measured inhibition values are reported for all entries that follow.
TESTED TARGET: Nuclear receptor coactivator 3 (Homo sapiens)
RUN DESCRIPTION: SRC3 coactivator transcriptional activity inhibitors, confirmation, cell-based, luminescence, quadruplicate (AID 588792);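 further: 0% = DMSO treated cells and 100% = gossypol at 36 µM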
CONDITION INFO: HEK293 GAL4-SRC3 luciferase reporter, at 3.6 µM, stronger effect = higher value
Give the quantity in %, number only.

Answered cases to consult:
# MOLECULE, MEASUREMENT
measured = [
    ("O=C1N=c2ccccc2=C1c1sc(=O)[nH]c1O", -3.29),
    ("Cc1cc(C(=O)COC(=O)c2cccnc2Cl)c(C)n1CC1CCCO1 (stereo not given)", 19.6),
    ("CNc1ncnc(Sc2nc(N)nc3nc[nH]c23)c1[N+](=O)[O-]", 47.1),
    ("CCN(CC)S(=O)(=O)c1ccc(N/N=C/c2ccc(O)cc2O)nc1", 68.3),
    ("COc1ccc2ncn(-c3ccccc3)c2c1", 49.2),
    ("O=C(CCl)NC(Cc1ccccc1)c1ccccc1 (stereo not given)", 52.5),
    ("O=C(C1=C(c2ccccc2)C(=O)c2ccccc2C1=O)c1ccccc1", 93.3),
    ("C#CC(=O)N(c1cc(OC)ccc1OC)C(C(=O)NC1CCCC1)c1cccs1 (stereo not given)", 49.7),
    ("O=C(NCC1CCCO1)c1cccc2c1C(=O)c1ccc(N3CCC(Cc4ccccc4)CC3)cc1S2(=O)=O (stereo not given)", -2.13),
    ("Cc1cc(C(=O)COC(=O)c2ccccc2Br)c(C)n1CC1CCCO1 (stereo not given)", 77.5),
]

Supply reported inhibition belonging to this molecule: O=C(NNc1ccccc1)c1ccc(Cl)c(Cl)c1
19.8

# return recorded inhibition for input Cc1[nH]ccc2cc3nc4ccccc4c3cc12
13.9

// Input: CN(C)c1ccc(C=c2c3ccccc3n3c2c2c([n+]3C)CCCC2)cc1 . Output its inhibition only.
75.3

Look up and state reported inhibition for COc1ccc(-n2nc(C(=O)NCC(=O)NCC3COc4ccccc4O3)c3ccccc3c2=O)cc1OC (stereo not given)
-4.76

Using known records, supply inhibition for Cc1ccc(N(CCC#N)C(=O)CCl)cc1C
54.3

* * *

TESTED TARGET: Steroidogenic factor 1 (Homo sapiens) (UniProt Q13285)
Sequence (Q13285 whole entry, looked up): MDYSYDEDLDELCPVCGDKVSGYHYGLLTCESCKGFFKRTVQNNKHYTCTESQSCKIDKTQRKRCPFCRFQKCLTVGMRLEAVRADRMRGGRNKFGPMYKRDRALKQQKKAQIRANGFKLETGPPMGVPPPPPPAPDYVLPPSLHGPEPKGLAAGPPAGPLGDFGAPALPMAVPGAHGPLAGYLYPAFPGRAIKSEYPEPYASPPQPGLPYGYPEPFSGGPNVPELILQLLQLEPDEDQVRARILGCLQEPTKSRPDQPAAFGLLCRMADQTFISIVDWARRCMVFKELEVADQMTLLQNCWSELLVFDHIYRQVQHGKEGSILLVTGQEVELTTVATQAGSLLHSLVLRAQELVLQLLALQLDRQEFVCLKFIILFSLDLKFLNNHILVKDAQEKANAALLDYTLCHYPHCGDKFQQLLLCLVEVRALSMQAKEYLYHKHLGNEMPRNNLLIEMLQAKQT
RUN DESCRIPTION: SF1 (NR5A1) inverse agonists, counter-screen for LRH-1 inverse agonist project, cell-based, luminescence, high throughput (AID 651614);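 further: cells cotransfected with StAR promoter reporter and SF1 expression vector; 0% = vehicle on cells with receptor and 100% = vehicle on cells lacking receptor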
CONDITION INFO: cell-based SF1 luciferase reporter, at 3.6 µM
Active and inactive are the calls of the source. No stated cut-off is given here; in the data, active means inhibition above about 44%; inactive means the rest.
The categories you may choose from are active, inactive

# MOLECULE, LABEL VALUE
data = [
    ("CCCCSc1nc(SCC(=O)NCc2ccco2)c2c3c(sc2n1)COC(C)(CC)C3 (stereo not given)", "active"),
    ("CN1OC[C@@H]2CN[C@H](c3ccc(-c4cc5ccccc5o4)cc3)C[C@@H]21", "active"),
    ("O=C(Nc1cc(C(F)(F)F)cc(C(F)(F)F)c1)O[C@@H]1c2ccccc2[C@@H]2Cc3csc[n+]3[C@H]12", "active"),
    ("COc1ccc(-c2n(CC(=O)OC3CC(C)CCC3C(C)C)c3ccccc3[n+]2C)cc1 (stereo not given)", "active"),
    ("CN(C)CCNc1ccc(CO)c2oc3ccc(O)cc3c(=O)c12", "active"),
    ("C/C(=N/N1CCN(Cc2cccc3ccccc23)CC1)c1cccnc1", "inactive"),
    ("COc1ccc(OC)c(/C=N/N=C2\\SCC(=O)N2Cc2ccco2)c1", "active"),
    ("CC1CCCN(c2cc(N(C)CCO)c([N+](=O)[O-])c3nonc23)C1 (stereo not given)", "active"),
    ("CC(/C=C(\\NC(=O)c1ccccc1)C(=O)N=Nc1c(O)[nH]c2ccc(C)cc12)=C\\c1ccccc1", "inactive"),
    ("CCc1cc(=O)oc2c(C)c(OCC(=O)NC3CC(C)(C)NC(C)(C)C3)ccc12", "active"),
]

From here, focus on the item given below.
In this assay, the call recorded for CCOc1ccc(NC(=O)CN2C(=O)NC(C)(c3ccc(OC(F)F)cc3)C2=O)cc1 (stereo not given) was what?
active

* * *

Consider the following compounds and their measured inhibition readings.
Test system: transactivating tegument protein VP16 (Human herpesvirus 1)
RUN DESCRIPTION: VP16 transactivation reporter inhibitors, counter-screen for SRC2 inhibitor project, cell-based, luminescence, single concentration (AID 652007)
CONDITION INFO: cell-based VP16 transactivation luciferase reporter, at 8.9 µM, stronger effect = higher value
Response body: numeric value in %, unit text excluded.

Solved cases below.
# COMPOUND, TESTED TARGET, inhibition, %
data = [
    ("CN(c1ccccc1)S(=O)(=O)c1ccc(Cl)c(C(=O)Nc2ccncc2)c1", "transactivating tegument protein VP16 (Human herpesvirus 1)", 0.61),
    ("CC(=O)Nc1ccc(SCC(=O)c2cc(C)n(-c3ccccc3F)c2C)cc1", "transactivating tegument protein VP16 (Human herpesvirus 1)", -6.67),
    ("CS(=O)(=O)N(CCC#N)Cc1ccc(/C=C2\\C(=O)Nc3ccccc32)o1", "transactivating tegument protein VP16 (Human herpesvirus 1)", 4.75),
]

Quote inhibition reported for CSC1=C(C#N)C(c2ccc3c(c2)OCO3)C2=C(CCCC2=O)N1 (configuration not stated) please.
0.63

Consider the compound Cc1cccc(NC(=S)NNc2ncc(C(F)(F)F)cc2Cl)c1 . State its measured inhibition.
24.3

Given the compound Cc1ccccc1C(=O)N/N=C/c1ccc([N+](=O)[O-])s1 , write its reported inhibition.
64.2

Tell me measured inhibition for O=C(O)CCCCCN1C(=O)CSC1=S please.
-0.37
